Field: Response of Control (%) AC1. Provide a value for each of the compounds that follow.
Experimental target: human AC1 (Homo sapiens, UniProt Q08828)
Sequence (Q08828 whole entry): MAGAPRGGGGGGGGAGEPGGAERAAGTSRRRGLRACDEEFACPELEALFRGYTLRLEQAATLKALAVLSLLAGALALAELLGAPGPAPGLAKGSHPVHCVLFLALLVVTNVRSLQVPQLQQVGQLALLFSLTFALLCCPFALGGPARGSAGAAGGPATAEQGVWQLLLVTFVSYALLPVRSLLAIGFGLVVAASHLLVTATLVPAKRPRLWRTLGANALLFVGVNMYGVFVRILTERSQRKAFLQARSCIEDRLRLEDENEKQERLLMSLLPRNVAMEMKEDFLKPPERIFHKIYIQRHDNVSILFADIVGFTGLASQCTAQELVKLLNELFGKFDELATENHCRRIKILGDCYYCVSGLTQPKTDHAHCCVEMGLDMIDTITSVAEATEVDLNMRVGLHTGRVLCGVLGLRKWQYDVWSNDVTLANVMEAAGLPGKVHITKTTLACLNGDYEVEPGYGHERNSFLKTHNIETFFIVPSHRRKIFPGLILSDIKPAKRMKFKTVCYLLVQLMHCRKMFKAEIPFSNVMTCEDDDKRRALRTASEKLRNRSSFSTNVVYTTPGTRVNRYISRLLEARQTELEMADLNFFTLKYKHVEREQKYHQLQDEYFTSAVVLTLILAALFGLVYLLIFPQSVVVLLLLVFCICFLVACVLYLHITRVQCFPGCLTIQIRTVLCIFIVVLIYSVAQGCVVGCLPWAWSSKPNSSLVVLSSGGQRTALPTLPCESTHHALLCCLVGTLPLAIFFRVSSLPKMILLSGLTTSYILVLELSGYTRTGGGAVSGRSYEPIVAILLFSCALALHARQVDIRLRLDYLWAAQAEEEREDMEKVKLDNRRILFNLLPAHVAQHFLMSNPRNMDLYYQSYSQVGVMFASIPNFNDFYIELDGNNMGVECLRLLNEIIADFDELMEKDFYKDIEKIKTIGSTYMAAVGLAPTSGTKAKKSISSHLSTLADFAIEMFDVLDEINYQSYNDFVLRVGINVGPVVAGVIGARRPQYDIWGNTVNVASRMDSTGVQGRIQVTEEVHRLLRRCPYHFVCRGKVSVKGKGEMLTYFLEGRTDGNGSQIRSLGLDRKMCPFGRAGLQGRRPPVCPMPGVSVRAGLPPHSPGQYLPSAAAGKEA
Assay type: cell-based
A complete answer gives the number followed by the unit.

{"Compound": "CC(C)OC(=O)C(Cc1ccccc1)NP(=O)(COCCn1cc(I)c2c(N)ncnc21)NC(Cc1ccccc1)C(=O)OC(C)C (stereo not shown) [Compound 6e]", "Response of Control (%) AC1": "22 ± 6%"}
{"Compound": "Nc1ncc2c(n1)CC(c1ccco1)CC2=O (stereo not shown) [NKY80, reference compound]", "Response of Control (%) AC1": "74 ± 10%"}
{"Compound": "CC(C)OC(=O)[C@H](Cc1ccccc1)NP(=O)(COCCc1c[nH]c2c(N)ncnc12)N[C@@H](Cc1ccccc1)C(=O)OC(C)C [Compound 15]", "Response of Control (%) AC1": "62 ± 9%"}

# input What Response of Control (%) AC1 value was documented for this compound, CC(C)OC(=O)[C@H](Cc1ccccc1)NP(=O)(COCCn1cnc2c(N)ncnc21)N[C@@H](Cc1ccccc1)C(=O)OC(C)C [III, reference compound] ?
# output 64 ± 9%

---

Experimental target: ACT (Enzo) (Bordetella pertussis)
Measured metric: IC50
A complete answer gives the number followed by the unit.

# input What IC50 value was documented for this compound, `Nc1ncnc2c(CCOCP(=O)(O)OP(=O)(O)OP(=O)(O)O)c[nH]c12` ?
# output 0.0133 µM

---

Experimental target: human AC5 (Homo sapiens, UniProt O95622)
Sequence (O95622 whole entry): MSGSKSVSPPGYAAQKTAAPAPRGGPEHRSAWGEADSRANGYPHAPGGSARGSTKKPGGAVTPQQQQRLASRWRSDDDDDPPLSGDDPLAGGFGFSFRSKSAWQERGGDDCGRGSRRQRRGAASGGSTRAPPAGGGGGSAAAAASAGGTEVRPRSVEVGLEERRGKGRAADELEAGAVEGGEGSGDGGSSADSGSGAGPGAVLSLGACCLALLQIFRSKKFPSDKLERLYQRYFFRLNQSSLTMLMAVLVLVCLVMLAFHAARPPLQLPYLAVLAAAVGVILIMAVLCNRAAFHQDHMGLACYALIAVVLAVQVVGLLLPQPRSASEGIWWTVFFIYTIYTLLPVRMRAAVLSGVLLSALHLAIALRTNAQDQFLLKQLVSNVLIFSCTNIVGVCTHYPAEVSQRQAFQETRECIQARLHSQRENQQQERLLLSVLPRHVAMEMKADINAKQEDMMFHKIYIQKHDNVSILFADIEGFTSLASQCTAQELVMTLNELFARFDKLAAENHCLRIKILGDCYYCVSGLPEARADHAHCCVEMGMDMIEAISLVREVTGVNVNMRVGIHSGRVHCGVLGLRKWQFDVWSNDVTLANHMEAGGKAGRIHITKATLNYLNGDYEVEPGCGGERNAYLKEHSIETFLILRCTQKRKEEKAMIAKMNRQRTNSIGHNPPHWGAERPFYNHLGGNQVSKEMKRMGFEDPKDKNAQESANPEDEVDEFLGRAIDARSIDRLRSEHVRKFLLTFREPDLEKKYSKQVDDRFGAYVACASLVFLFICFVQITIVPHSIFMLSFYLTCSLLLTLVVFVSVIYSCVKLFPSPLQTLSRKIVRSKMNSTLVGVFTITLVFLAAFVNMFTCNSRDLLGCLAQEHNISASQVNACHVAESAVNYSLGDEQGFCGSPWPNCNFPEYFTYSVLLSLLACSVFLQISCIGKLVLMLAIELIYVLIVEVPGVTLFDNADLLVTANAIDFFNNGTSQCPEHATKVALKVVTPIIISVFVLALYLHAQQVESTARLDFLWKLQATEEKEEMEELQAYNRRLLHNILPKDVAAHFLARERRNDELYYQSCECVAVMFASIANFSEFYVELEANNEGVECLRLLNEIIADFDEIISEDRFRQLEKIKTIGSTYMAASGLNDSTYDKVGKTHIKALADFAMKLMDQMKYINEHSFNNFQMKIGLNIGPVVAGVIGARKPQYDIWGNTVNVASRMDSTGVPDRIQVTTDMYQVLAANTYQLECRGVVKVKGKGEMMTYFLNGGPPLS
Type: cell-based
Field: Response of Control (%) AC5. Provide a value for each of the molecules that follow.
Answers are plain numbers, in %.

{"Molecule": "Nc1ncc2c(n1)CC(c1ccco1)CC2=O (stereo not shown) [NKY80, reference compound]", "Experimental target": "human AC5 (Homo sapiens, UniProt O95622)", "Display unit": "%", "Response of Control (%) AC5": 54}
{"Molecule": "CC(C)OC(=O)C(Cc1ccccc1)NP(=O)(COCCn1cnc2c(N)nccc21)NC(Cc1ccccc1)C(=O)OC(C)C (stereo not shown)", "Experimental target": "human AC5 (Homo sapiens, UniProt O95622)", "Display unit": "%", "Response of Control (%) AC5": 77}
{"Molecule": "CC(C)OC(=O)[C@H](Cc1ccccc1)NP(=O)(COCCn1ccc2c(N)ncnc21)N[C@@H](Cc1ccccc1)C(=O)OC(C)C", "Experimental target": "human AC5 (Homo sapiens, UniProt O95622)", "Display unit": "%", "Response of Control (%) AC5": 139}
{"Molecule": "CC(C)OC(=O)C(Cc1ccccc1)NP(=O)(COCCc1ccc2c(N)ncnn12)NC(Cc1ccccc1)C(=O)OC(C)C (stereo not shown)", "Experimental target": "human AC5 (Homo sapiens, UniProt O95622)", "Display unit": "%", "Response of Control (%) AC5": 172}
{"Molecule": "CC(C)OC(=O)[C@H](Cc1ccccc1)NP(=O)(COCCn1cc(Cl)c2c(N)ncnc21)N[C@@H](Cc1ccccc1)C(=O)OC(C)C", "Experimental target": "human AC5 (Homo sapiens, UniProt O95622)", "Display unit": "%", "Response of Control (%) AC5": 182}

Hi! Can you tell me Response of Control (%) AC5 for each of these molecules?
1. Nc1ncnc2c1ncn2C1CCCO1 (stereo not shown) [SQ22536, reference compound]
2. CC(C)OC(=O)[C@H](Cc1ccccc1)NP(=O)(COCCn1ncc2c(N)ncnc21)N[C@@H](Cc1ccccc1)C(=O)OC(C)C [Compound 18a]

# output
67
147

---

Experimental target: human AC1 (Homo sapiens, UniProt Q08828)
Format: cell-based
Field: Response of Control (%) AC1. Provide a value for each of the molecules that follow.
Numbers only, in %.

Here is how some molecules turned out for Response of Control (%) AC1.
{"Molecule": "CC(C)OC(=O)[C@H](Cc1ccccc1)NP(=O)(COCCn1cc(Cl)c2c(N)ncnc21)N[C@@H](Cc1ccccc1)C(=O)OC(C)C [Compound 6c]", "Response of Control (%) AC1": 23}
{"Molecule": "CC(C)OC(=O)[C@H](Cc1ccccc1)NP(=O)(COCCn1cc(F)c2c(N)ncnc21)N[C@@H](Cc1ccccc1)C(=O)OC(C)C [Compound 6b]", "Response of Control (%) AC1": 48}

Would you kindly look at the next entry?
# input What Response of Control (%) AC1 value was documented for this molecule, CC(C)(C)C(=O)OCOP(=O)(COCCn1cnc2c(N)ncnc21)OCOC(=O)C(C)(C)C [Compound I, adefovir dipivoxil, reference compound] ?
# output 177

---

Assay info: in vitro
Condition context: mouse
Measured metric: viability at 10 µM (%)
Give bare numbers, in %.

# input What viability at 10 µM value was documented for this molecule, CC(C)(C)C(=O)OCOP(=O)(COCCn1cnc2c(N)ncnc21)OCOC(=O)C(C)(C)C [Compound I, adefovir dipivoxil, reference compound] ?
# output 59

---

Field: Viability (%). Provide a value for each of the molecules that follow.
System: J774A.1 cells
Condition context: 10 µM
Give bare numbers, in %.

{"Molecule": "CC(C)OC(=O)C(Cc1ccccc1)NP(=O)(COCCc1ccc2c(N)ncnn12)NC(Cc1ccccc1)C(=O)OC(C)C (stereo not shown)", "Experimental target": "J774A.1 cells", "Viability (%)": 96}
{"Molecule": "CC(C)OC(=O)[C@H](Cc1ccccc1)NP(=O)(COCCn1cc(Br)c2c(N)ncnc21)N[C@@H](Cc1ccccc1)C(=O)OC(C)C", "Experimental target": "J774A.1 cells", "Viability (%)": 105}
{"Molecule": "CC(C)OC(=O)[C@H](Cc1ccccc1)NP(=O)(COCCn1ccc2c(N)ncnc21)N[C@@H](Cc1ccccc1)C(=O)OC(C)C", "Experimental target": "J774A.1 cells", "Viability (%)": 120}

Hi! Can you tell me Viability (%) for each of these molecules?
1. CC(C)OC(=O)[C@H](Cc1ccccc1)NP(=O)(COCCn1ncc2c(N)ncnc21)N[C@@H](Cc1ccccc1)C(=O)OC(C)C [Compound 18a]
2. CC(C)OC(=O)[C@H](Cc1ccccc1)NP(=O)(COCCc1csc2c(N)ncnc12)N[C@@H](Cc1ccccc1)C(=O)OC(C)C
3. CC(C)OC(=O)[C@H](Cc1ccccc1)NP(=O)(COCCn1nnc2c(N)ncnc21)N[C@@H](Cc1ccccc1)C(=O)OC(C)C [Compound 18b]
4. CC(C)OC(=O)[C@H](Cc1ccccc1)NP(=O)(COCCn1cc(Cl)c2c(N)ncnc21)N[C@@H](Cc1ccccc1)C(=O)OC(C)C

# output
[109, 84, 101, 89]

Hi! Can you tell me Viability (%) for each of these molecules?
1. CC(C)OC(=O)C(Cc1ccccc1)NP(=O)(COCCn1cc(I)c2c(N)ncnc21)NC(Cc1ccccc1)C(=O)OC(C)C (stereo not shown)
2. CC(C)OC(=O)[C@H](Cc1ccccc1)NP(=O)(COCCn1cc(F)c2c(N)ncnc21)N[C@@H](Cc1ccccc1)C(=O)OC(C)C
3. CC(C)OC(=O)[C@H](Cc1ccccc1)NP(=O)(COCCn1cnc2c(N)ncnc21)N[C@@H](Cc1ccccc1)C(=O)OC(C)C [III, reference compound]

# output
[106, 90, 93]

---

Experimental target: human AC1 (Homo sapiens, UniProt Q08828)
Condition context: read-out: AC1 IC50
Measured metric: pIC50
Give bare numbers, as −log10 of the molar value.

Here is how some compounds turned out for pIC50.
{"Compound": "CC(C)OC(=O)C(Cc1ccccc1)NP(=O)(COCCn1cc(I)c2c(N)ncnc21)NC(Cc1ccccc1)C(=O)OC(C)C (stereo not drawn)", "Experimental target": "human AC1 (Homo sapiens, UniProt Q08828)", "pIC50": 5.39}
{"Compound": "CC(C)OC(=O)[C@H](Cc1ccccc1)NP(=O)(COCCn1cc(Br)c2c(N)ncnc21)N[C@@H](Cc1ccccc1)C(=O)OC(C)C", "Experimental target": "human AC1 (Homo sapiens, UniProt Q08828)", "pIC50": 5.37}

# input What pIC50 value was documented for this compound, `CC(C)OC(=O)[C@H](Cc1ccccc1)NP(=O)(COCCn1cc(Cl)c2c(N)ncnc21)N[C@@H](Cc1ccccc1)C(=O)OC(C)C` ?
# output 5.25

---

Experimental target: Bordetella pertussis adenylate cyclase toxin (ACT) (Bordetella pertussis, UniProt P0DKX7)
Assay info: cell-based
Assay type: cell-based
Measured metric: IC50 (nM)
Give bare numbers, in nM.

# input What IC50 value was documented for this molecule, CC(C)(C)C(=O)OCOP(=O)(COCCn1cnc2c(N)ncnc21)OCOC(=O)C(C)(C)C [Compound I, adefovir dipivoxil, reference compound] ?
# output 6

---

Experimental target: Bordetella pertussis adenylate cyclase toxin (ACT) (Bordetella pertussis, UniProt P0DKX7)
Assay info: cell-based
Type: cell-based
Condition context: read-out: IC50 (concentration causing a 50% decrease in ACT-induced cAMP accumulation)
Measured metric: IC50 (nM)
Numbers only, in nM.

Here is how some compounds turned out for IC50.
{"Compound": "CC(C)OC(=O)[C@H](Cc1ccccc1)NP(=O)(COCCn1nnc2c(N)ncnc21)N[C@@H](Cc1ccccc1)C(=O)OC(C)C [Compound 18b]", "Number": 208}
{"Compound": "CC(C)OC(=O)[C@H](Cc1ccccc1)NP(=O)(COCCn1ccc2c(N)ncnc21)N[C@@H](Cc1ccccc1)C(=O)OC(C)C [Compound 6a]", "Number": 51}
{"Compound": "CC(C)OC(=O)[C@H](Cc1ccccc1)NP(=O)(COCCn1cc(Cl)c2c(N)ncnc21)N[C@@H](Cc1ccccc1)C(=O)OC(C)C [Compound 6c]", "Number": 1270}
{"Compound": "CC(C)OC(=O)[C@H](Cc1ccccc1)NP(=O)(COCCc1csc2c(N)ncnc12)N[C@@H](Cc1ccccc1)C(=O)OC(C)C [Compound 24]", "Number": 196}

Would you kindly look at the next entry?
# input What IC50 value was documented for this compound, CC(C)OC(=O)[C@H](Cc1ccccc1)NP(=O)(COCCn1ncc2c(N)ncnc21)N[C@@H](Cc1ccccc1)C(=O)OC(C)C [Compound 18a] ?
# output 16

Data credit: paper PMC6415679
